# Test system: Lung (NCI-H460)
# experiment description: Proliferation inhibition assay (sulforhodamin B uptake), lung cells
# Format: cell-based
# condition set: concentration 1 × 10^−5 molar
endpoint: Percent Growth in 48 Hours, Lung (NCI-H460) (%)
Answers are plain numbers, in %.

I have 3 compounds here; please give me Percent Growth in 48 Hours, Lung (NCI-H460) for each one.
1. COC(C(O)C(C)=O)[C@@H]1Cc2cc3cc(OC4CC(OC5CC(O)C(O)C(C)O5)C(O)C(C)O4)c(C)c(O)c3c(O)c2C(=O)[C@H]1OC1CC(OC2CC(O)C(O)C(C)O2)C(O)C(C)O1 (stereo partly shown)
2. COC(C(O)C(C)=O)[C@@H]1Cc2cc3cc(OC4CC(OC5CC(O)C(O)C(C)O5)C(O)C(C)O4)c(C)c(O)c3c(O)c2C(=O)[C@H]1OC1CC(OC2CC(OC3CC(C)(O)C(O)C(C)O3)C(O)C(C)O2)C(O)C(C)O1 (stereo partly shown)
3. CO[C@H](C(=O)[C@@H](O)[C@@H](C)O)[C@@H]1Cc2cc3cc(OC4CC(OC5CC(O)C(O)C(C)O5)C(O)C(C)O4)c(C)c(O)c3c(O)c2C(=O)[C@H]1OC1CC(OC2CC(OC3CC(C)(O)C(O)C(C)O3)C(O)C(C)O2)C(O)C(C)O1 (stereo partly shown)

Result:
5
0.1
12

Hey, just so you know, these numbers are from patent US7423008B2.
